Target: human TRPV4 (Homo sapiens, UniProt Q9HBA0)
Sequence (Q9HBA0 whole entry): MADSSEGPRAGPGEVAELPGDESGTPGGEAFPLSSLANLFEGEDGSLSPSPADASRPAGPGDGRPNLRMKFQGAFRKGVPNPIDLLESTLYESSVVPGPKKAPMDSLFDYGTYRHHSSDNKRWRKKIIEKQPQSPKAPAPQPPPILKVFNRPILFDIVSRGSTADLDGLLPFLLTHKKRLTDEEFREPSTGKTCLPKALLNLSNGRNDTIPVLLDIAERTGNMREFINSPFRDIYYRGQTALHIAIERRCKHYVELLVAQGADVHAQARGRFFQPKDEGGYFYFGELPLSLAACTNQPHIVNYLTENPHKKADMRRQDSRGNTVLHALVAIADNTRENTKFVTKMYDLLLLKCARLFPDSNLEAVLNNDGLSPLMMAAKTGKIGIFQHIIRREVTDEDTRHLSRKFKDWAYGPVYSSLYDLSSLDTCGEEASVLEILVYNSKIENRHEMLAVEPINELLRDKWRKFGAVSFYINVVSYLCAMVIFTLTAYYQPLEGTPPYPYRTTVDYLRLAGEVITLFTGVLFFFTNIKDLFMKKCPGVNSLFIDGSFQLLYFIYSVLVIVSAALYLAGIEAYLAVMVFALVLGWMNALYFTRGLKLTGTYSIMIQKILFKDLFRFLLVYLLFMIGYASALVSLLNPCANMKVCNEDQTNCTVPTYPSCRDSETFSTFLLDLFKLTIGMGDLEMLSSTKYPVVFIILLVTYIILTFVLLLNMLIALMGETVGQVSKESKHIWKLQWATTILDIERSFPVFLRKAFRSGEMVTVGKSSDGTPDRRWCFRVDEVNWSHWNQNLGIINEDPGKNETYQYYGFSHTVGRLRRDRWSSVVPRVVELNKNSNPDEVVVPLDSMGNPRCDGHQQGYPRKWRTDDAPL
Assay: Ligand-gated assay: FLIPR assay for human TRPV4 expressed in HEK293 MSRII cells
Conditions: HEK293 MSRII cells transduced with BacMam virus expressing human TRPV4; Fluo-4 calcium signal; agonist at EC80; read-out: activity (inhibition of Agonist Compound-induced calcium signal)
MEASURE_NAME: IC50
Phrase the answer as number then unit, nothing more needed.

## Input Please look up its IC50: "N#Cc1ccc2ncn(C[C@@]3(O)CCC[C@@]4(CN(c5cnc(C6CC6)cn5)C(=O)O4)C3)c2c1"
## Output 6.3 nM
